Test summary: Inhibition of starfish CDK1/cyclin B
Set-up: species or system Marthasterias glacialis
Measured property: IC50 (nM)
Express it in nM; write the number only.

Would you kindly share the measured IC50 for Oc1ccc(-c2cncc(-c3cc4cc(O)ccc4[nH]3)c2)cc1 ?
310

Query: IC50; subject: Oc1ccc2[nH]c(-c3cncc(-c4cc5cc(O)ccc5[nH]4)c3)cc2c1
540

Requested field: IC50. Item: CN(C)CCCOc1ccc(-c2cncc(-c3cc4ccccc4[nH]3)c2)cc1
900

Given CN(C)CCOc1ccc(-c2cncc(-c3cc4ccccc4[nH]3)c2)cc1 , state its recorded IC50.
2500

Data credit: ChEMBL document CHEMBL1157207
